- Test system: PC-3 prostate
- test method notes: NCI-60 one-dose screen, 48 h (100 = growth as untreated, 0 = no growth, -100 = all killed)
- condition summary: 10 µM unless noted
About 83,000 compounds went through this panel and 20% of them were active in at least one assay; those are over-represented in the sample as a whole. The source made the active and inactive calls. Rule for the calls: active = growth percent below 10; inactive = the rest.
assay readout: growth

INSERT INTO assay_data (molecule, assay_result) VALUES
  ('C=C(C)[C@@H]1CC[C@]2(CO)CC[C@]3(C)[C@H](CC[C@@H]4[C@@]5(C)CCCNC(C)(C)[C@@H]5CC[C@]43C)[C@@H]12', '25.6% (inactive)'),
  ('COc1cnccc1-c1nc2ccc3[nH]ncc3c2c2c1CCCC2', '68.2% (inactive)'),
  ('CCn1cc(C2NC(=O)c3ccccc3N2)c2cccc(C)c21 (stereo not given)', '22% (inactive)'),
  ('CC1NC(=S)NC(=O)/C1=C/c1cc(=O)oc2c1ccc1ccccc12 (stereo not given)', '72.8% (inactive)'),
  ('CN(C)c1ccc(-c2c(C#N)c(N)n3nc(N)c(C#N)c3c2C#N)cc1', '76.6% (inactive)');

###

- Test system: SK-MEL-5 melanoma
- test method notes: NCI-60 one-dose screen, 48 h
- condition summary: 10 µM unless noted
This is part of a sample that, as a whole, favours compounds with a hit. Of some 83,000 tested, about 20% had one in any assay. The source made the active and inactive calls. The calls were made as follows: active = growth percent below 10; inactive = the rest.
Possible outcomes: active, inactive

INSERT INTO results (molecule, group) VALUES
  ('CC(=O)c1c[nH]c2ccc(-c3ccnc(Nc4ccc(NC(=O)c5cccc(F)c5)c(CN5CCOCC5)c4)n3)cc12', 'active'),
  ('CCCCCCOc1ccc(/C=N/Nc2cc(C)nc3ccc(Br)cc23)cc1', 'inactive'),
  ('CCN1C(=O)N(CC)C2NC(SC)=NC21 (stereo not drawn)', 'inactive'),
  ('COc1ccc(Cl)cc1NC(=O)c1c(NC(=O)C(F)(F)C(F)(F)F)sc2c1CCCCC2', 'active'),
  ('CCC(C)C(N)C(=O)NNc1n[nH]c(=S)n1N (stereo not drawn)', 'inactive'),
  ('CCCNC(=O)Oc1ccc(/C(=C(\C)c2ccccc2)c2ccc(OCCN3CCCCC3)cc2)cc1', 'inactive'),
  ('O=C1CCCCCCCCC(O)C(O)CCCC(c2cccs2)O1 (stereo not drawn)', 'inactive'),
  ('COc1ccc2nc(N=Nc3c(O)ccc4ccccc34)sc2c1', 'active'),
  ('O=C(Nc1nc(-c2ccc(Br)cc2)cs1)c1cc(-c2ccc(Br)cc2)nc2ccc(Cl)cc12', 'inactive'),
  ('COc1ccc(C(=O)c2cc3c(N)c(C(=O)Nc4cccc(Br)c4C)sc3nc2C)cc1', 'active'),
  ('CC(C)(C)OC(=O)N1CCN(c2ccc(N)cc2)C(=O)C1', 'inactive'),
  ('C#CCn1cc(C=C2C(=O)NC(=S)NC2=O)c2cc(Cl)ccc21', 'inactive'),
  ('O=S(=O)(NCCCNc1nccc(-c2c(-c3cccc(O)c3)nc3occn23)n1)c1ccc(F)cc1', 'inactive'),
  ('CCCC/C(=N\N=C(N)N)c1ccc(F)cc1', 'active'),
  ('O=C1C(=O)c2c(nc3ncccn23)-c2ccccc21', 'active'),
  ('Cc1c(C(=O)NO)sc2ncnc(Nc3ccc(NC(=S)Nc4ccccc4)cc3)c12', 'inactive'),
  ('N#Cc1cc(-c2nc3ccccc3s2)c(=O)n(NS(=O)(=O)c2ccc(Cl)cc2)c1N', 'inactive'),
  ('CCC1(CC)NC(=O)c2c(c3ccc(Cl)c(Cl)c3n2C)C1C#N (stereo not drawn)', 'inactive'),
  ('COc1ccc(NC(=O)c2sc3nc(C)c(C(O)c4ccc(OC)cc4)cc3c2N)cc1 (stereo not drawn)', 'active'),
  ('O=C(O)/C=C\C(=O)N1C/C(=C\c2ccccc2Cl)C(=O)/C(=C/c2ccccc2Cl)C1', 'active'),
  ('COc1cc2oc(-c3cccc(C(=O)Nc4ccc(Cl)cc4)c3)cc(=O)c2c(OC)c1OC', 'active'),
  ('COc1ccccc1Nc1cc(O)c2c(=O)cc(-c3ccccc3)oc2c1', 'inactive'),
  ('C=C1C(=O)O[C@H]2[C@H]1CC/C(COC(=O)NCCc1c[nH]c3ccc(Cl)cc13)=C\CC[C@@]1(C)O[C@@H]21', 'active'),
  ('CCCCCCCCCCCC(=O)C(CCCCCCCCCC)C(=O)Nc1ccccc1 (stereo not drawn)', 'inactive'),
  ('CCn1ccnc1C(=O)/C=C/c1ccc(CC(=O)Nc2ccc(F)cc2)cc1', 'inactive'),
  ('O=C1Nc2c(ccc(Cl)c2Cl)/C1=C/c1ccc(O)cc1', 'inactive'),
  ('O=S(=O)(NCCNc1nccc(-c2c(-c3ccc(F)c(O)c3)nc3occn23)n1)c1ccccc1', 'inactive'),
  ('C/C(=C(/c1ccccc1)c1ccc(OCC(O)CN2CCOCC2)cc1)c1ccccc1 (stereo not drawn)', 'inactive'),
  ('Cc1c2c(cc[n+]1Cc1ccccc1)c1ccc(OCc3ccccc3)cc1n2Cc1ccccc1', 'active'),
  ('COc1ccc(C2CC(c3cccc(Nc4ccncc4)c3)=NN2c2ccccc2)cc1 (stereo not drawn)', 'inactive'),
  ('CN(C)Cc1c(-c2ccccc2)[nH]c2ccccc12', 'inactive'),
  ('CC(C)NC(=O)N1C(=O)CCC1NNC(=O)c1ccc([N+](=O)[O-])cc1 (stereo not drawn)', 'inactive'),
  ('O=C(Nc1ccc2cc3ccc(NC(=O)NC4CCCCC4)cc3nc2c1)NC1CCCCC1', 'inactive'),
  ('[2H]C1([2H])NC([2H])([2H])C([2H])([2H])N(c2ccc(Nc3ncc4cc(C(=O)N(C)C)n(C5CCCC5)c4n3)nc2)C1([2H])[2H]', 'inactive'),
  ('COc1ccc(CNC(=O)COc2ccc(/C=N/Nc3nc4ccccc4s3)cc2)cc1', 'inactive'),
  ('CCNNC(=O)[C@@H]1[C@H](c2cc(OC)c(OC)c(OC)c2)c2cc3c(cc2[C@H](O)[C@H]1CO)OCO3', 'active'),
  ('Cc1[nH]n(-c2cccc(Cl)c2)c(=O)c1/C=C1\C=Nc2ccc(Br)cc21', 'inactive'),
  ('Cc1ccc2[nH]c(=O)cc(-n3nncc3COc3ccc(C=O)cc3)c2c1', 'inactive');

###

Listing of recorded growth by entry.
- System: SK-MEL-5 melanoma
- test method notes: NCI-60 one-dose screen, 48 h (100 = growth as untreated, 0 = no growth, -100 = all killed)
- condition summary: 10 µM unless noted
Compounds without any hit were thinned out: in the full panel of roughly 83,000, 20% have a hit.
assay readout: growth (%)

INSERT INTO measurements (molecule, unit_descriptor, assay_result) VALUES
  ('c1ccc(N2N=C(c3cccc(Nc4ccncc4)c3)CC2c2ccc3c(c2)OCO3)cc1 (centres undefined)', '%', -14.3),
  ('CC(C)(C)CC(C)(C)Nc1c(-c2ccc(C(F)(F)F)cc2)nc2cnccn12', '%', 90),
  ('CN(C)C(=O)OCc1nc2c(N3CCOCC3)nc(-c3ccccc3)nc2n1C', '%', -95.7),
  ('Cn1c(COC(=O)NCCN2CCOCC2)nc2c(N3CCOCC3)nc(-c3ccccc3)nc21', '%', -93.6),
  ('CNC(=O)NCC1OC(n2cnc3c(NC(=O)Nc4ccccc4)ncnc32)C(O[Si](C)(C)C(C)(C)C)C1O[Si](C)(C)C(C)(C)C (centres undefined)', '%', 48.2),
  ('CSc1nc(O)c(-c2ccccc2)c(=O)[nH]1', '%', 101),
  ('Cn1c(COC(=O)NCCc2ccccn2)nc2c(N3CCOCC3)nc(Cl)nc21', '%', 3.6),
  ('COc1cc(/C=C/C(=O)c2c(C)oc3nc[nH]c(=O)c23)ccc1O', '%', 101),
  ('COc1ccncc1C#Cc1cncc(C(=O)Nc2ccc(CN3CCN(C)CC3)c(C(F)(F)F)c2)c1', '%', 34.2),
  ('O=S(=O)(NCCCNc1nccc(-c2c(-c3cccc(O)c3)nc3occn23)n1)c1ccc(Br)cc1', '%', 47.1),
  ('c1ccc(C2CC(c3cccc(Nc4ccncc4)c3)=NN2c2ccccc2)cc1 (centres undefined)', '%', 75.3),
  ('O=C(N/N=C/c1ccc(O)c(O)c1)c1sc2ccccc2c1Cl', '%', 81.8),
  ('O=C(CN1CCOCC1)Nc1ccc2ncnc(Nc3ccc(OCc4cccc(F)c4)c(Cl)c3)c2c1', '%', 61.5),
  ('CC[N+](CC)(CCCC(C)[N+]1(Cc2ccccc2)C(C)=CC=C1C)Cc1ccccc1 (centres undefined)', '%', 68.7),
  ('CCOC(=O)Oc1c(OC)cc(C(=O)O[C@@H]2C[C@@H]3CN4CCc5c([nH]c6cc(OC)ccc56)[C@H]4C[C@@H]3[C@H](C(=O)OC)[C@H]2OC)cc1OC', '%', 86.1),
  ('CCNC(=S)NNC(=O)c1cc2ccc1CCc1ccc(cc1)CC2', '%', 96.7),
  ('CC(=O)c1c(C)[nH]c(-c2nc3ccc(N4CCN(C)CC4)cc3[nH]2)c1-c1ccccc1', '%', 11.8),
  ('CC1(C)CC[C@]2(C(=O)NCC#CCN3CCOCC3)CC[C@]3(C)C(=CC[C@@H]4[C@@]5(C)Cc6c([nH]c7ccccc67)C(C)(C)[C@@H]5CC[C@]43C)[C@@H]2C1', '%', 88.8),
  ('COc1ccc(C(=O)c2cc(C)c(OC)c(C)c2)c(OC)c1O', '%', -34.5),
  ('Cn1c2c(Cl)c(Cl)ccc2c2cc(N)[nH]c(=O)c21', '%', 81.7),
  ('Cn1c(COC(=O)NCCn2ccnc2)nc2c(N3CCOCC3)nc(-c3ccccc3)nc21', '%', -96),
  ('O=C(O)C(/C=C/c1ccco1)=N\Nc1nc(-c2ccc(Cl)cc2)cs1', '%', 62.1),
  ('Brc1ccc(C2CC(c3cccc(Nc4ccncc4)c3)=NN2c2ccccc2)cc1 (centres undefined)', '%', 82.2),
  ('COc1cnccc1-c1nc2ccc3[nH]ncc3c2c2c1CCCC2', '%', 54.1),
  ('O=C1Nc2ccccc2/C1=N/c1nc(-c2ccc(Cl)cc2)cs1', '%', 76.7),
  ('C=C(C)[C@H]1CC/C(C)=C/CC[C@]2(C)O[C@H]2CC/C(COC(=O)[C@@H](OC(C)=O)[C@H](NC(=O)c2ccccc2)c2ccccc2)=C\[C@@H]1O', '%', 78.8),
  ('CN(C)CCCn1c2c(c3ccc(-c4ccn[nH]4)cc3c1=O)C(=O)c1ccccc1-2', '%', 31.5),
  ('COc1cccc(-c2nc3occn3c2-c2ccnc(NCCCNS(=O)(=O)c3cccc(F)c3)n2)c1', '%', 48.2),
  ('O=S(=O)(c1ccccc1)N1CCCc2ccccc21', '%', 102);
